// merged dataset of Ki values, system = UniProtKB P07477, multiple refs
Sequence (P07477 whole entry): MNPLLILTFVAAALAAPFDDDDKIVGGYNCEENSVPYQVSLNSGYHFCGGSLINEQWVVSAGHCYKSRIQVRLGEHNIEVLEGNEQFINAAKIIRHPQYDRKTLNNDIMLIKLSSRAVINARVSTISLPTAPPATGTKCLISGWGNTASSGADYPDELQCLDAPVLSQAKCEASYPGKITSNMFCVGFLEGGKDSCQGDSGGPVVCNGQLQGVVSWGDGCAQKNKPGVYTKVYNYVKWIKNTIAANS
QUANTITY MEASURED: Ki (nM)

INSERT INTO measurements (compound, recorded_value) VALUES
  ('Cc1nc(N)ccc1CNC(=O)Cn1c(C)cc2c(c1=O)NC(=O)[C@H](Cc1ccccc1)C2', 12700),
  ('CC(C)C(=O)NCc1nc(Cc2ccccc2)n(CC(=O)N[C@@H](CCCCN)B2O[C@@H]3C[C@@H]4C[C@@H](C4(C)C)[C@]3(C)O2)n1', 9.6),
  ('N=C(N)c1cccc(C(=O)N[C@@H](C(=O)NCC2CCC(CN)CC2)C2CCCCC2)c1 (stereo partly drawn)', 8500),
  ('CCc1nc2cc(OC3CCN(C(C)=N)CC3)ccc2n1Cc1ccc2ccc(C(=N)N)cc2c1', 5),
  ('O=C1Cn2c(Cl)cnc(c2=O)N[C@@H](Cc2ccccc2)CNCCCCCOc2ccccc2CN1', 6700),
  ('N=C(N)c1cccc(C2=NOC(Cn3cnnn3)(C(=O)Nc3ncc(-c4ccccc4S(N)(=O)=O)cn3)C2)c1 (stereo not drawn)', 500),
  ('N=C(N)c1ccc2[nH]cc(CC(=O)Nc3ccc(-c4ccccc4S(N)(=O)=O)cc3F)c2c1', 270),
  ('CN(CC(=O)N[C@@H](CCC/N=C\N)B(O)O)C(=O)CCc1ccccc1', 21);

* * *

// merged dataset of log10 Ki values, system = UniProt:P07477, multiple refs
QUANTITY MEASURED: log10 Ki (log10 of the value in µM)

INSERT INTO assay_data (molecule, target_or_system, recorded_value) VALUES
  ('N=C(N)Nc1ccc(CNC(=O)N2CCN(C(=O)CCCCCCCCC(=O)N3CCN(C(=O)NCc4ccc(NC(=N)N)cc4)CC3)CC2)cc1', 'UniProt:P07477', 1.30),
  ('N=C(N)Nc1ccc(CNC(=O)N2CCN(C(=O)O[C@H]3CCC[C@@H](OC(=O)N4CCN(C(=O)NCCCC5CCNCC5)CC4)CCC3)CC2)cc1', 'UniProt:P07477', 1.90),
  ('CN(CC(=O)N[C@@H](CCCCN)B(O)O)C(=O)CCc1ccccc1', 'UniProt:P07477', -2.55),
  ('O=C(O)CN[C@H](CC1CCCCC1)C(=O)N1CCC[C@H]1C(=O)NCC1CCc2n[nH]cc2C1 (some centres not stated)', 'UniProt:P07477', 1.30),
  ('N=C(N)c1ccc2ncn(CC(=O)Nc3ccc(-c4ccccc4)cc3)c2c1', 'UniProt:P07477', -0.32),
  ('N=C(N)c1ccc(CNC(=O)CNS(=O)(=O)c2ccc3ccccc3c2)cc1', 'UniProt:P07477', -0.19),
  ('COc1ccc2cc(S(=O)(=O)NN(Cc3cccc(C(=N)NO)c3)C(=O)N3CCCCC3C)ccc2c1 (configuration not stated)', 'UniProt:P07477', 1.67),
  ('CCCCOC(=O)[C@@H]1CN(Cc2ccc(-c3ccccc3S(N)(=O)=O)cc2)C[C@H]1c1cccc(C(=N)N)c1', 'UniProt:P07477', -0.96),
  ('O=C1Cn2c(Cl)cnc(c2=O)N[C@@H](Cc2ccccc2)CNCCCNCCc2ccccc2CN1', 'UniProt:P07477', 0.32),
  ('CC[C@@H](NC(=O)c1ccc(-c2cccc(CN)c2)cc1)[C@@H](Cc1cccc(C(=N)N)c1)C(=O)OC', 'UniProt:P07477', -1.20),
  ('N[C@H]1CC[C@H](C(NC(=O)[C@@H]2CC[C@H]3CN(S(=O)(=O)Cc4ccccc4)CC(=O)N32)C(=O)c2nc3ccccc3s2)CC1 (some centres not stated)', 'UniProt:P07477', 0.15),
  ('N=C(N)c1cccc(C(=O)N[C@@H](C(=O)N2CCN(Cc3ccccc3)CC2)c2ccccc2)c1', 'UniProt:P07477', 0.34),
  ('COC(=O)[C@H](Cc1cccc(C(=N)N)c1)[C@@H](C)NC(=O)c1ccc(-c2ccc[n+]([O-])c2)cc1', 'UniProt:P07477', -0.89),
  ('COC(=O)[C@H](Cc1cccc(C(=N)N)c1)[C@@H](C)NC(=O)c1ccc(-c2cccc(CN)c2)cc1', 'UniProt:P07477', -1.16),
  ('N=C(N)c1cccc(N2CCCCN(C3CCN(S(=O)(=O)c4ccc(N)cc4)CC3)C2=O)c1', 'UniProt:P07477', -0.72),
  ('N[C@@H](C(=O)N1CCC[C@H]1C(=O)NCC1CCc2n[nH]cc2C1)C(c1ccccc1)c1ccccc1 (some centres not stated)', 'UniProt:P07477', 2.34),
  ('COc1ccc2cc(S(=O)(=O)NN(Cc3cccc(C(=N)N)c3)C(=O)N3CCCCCC3)ccc2c1', 'UniProt:P07477', -1.28),
  ('N=C(N)c1cccc(C2=NOC(Cn3cnnn3)(C(=O)Nc3ccc(-c4ccccc4S(N)(=O)=O)cc3)C2)c1 (configuration not stated)', 'UniProt:P07477', -1.04),
  ('N=C(N)c1ccc2cnn(CC(=O)Nc3ccc(-c4ccccc4S(N)(=O)=O)cn3)c2c1', 'UniProt:P07477', -1.39),
  ('CCCCOCC1(C(=O)Nc2ccc(-c3ccccc3S(N)(=O)=O)cc2)CC(c2cccc(C(=N)N)c2)=NO1 (configuration not stated)', 'UniProt:P07477', -0.95),
  ('Cc1nc(N)ccc1CNC(=O)Cn1c(C)cc2c(c1=O)NCN(CC1CCC1)S2(=O)=O', 'UniProt:P07477', 0.20),
  ('N=C(N)N1CCC(CC(=O)N2CCN(C(=O)O[C@H]3CCC[C@@H](OC(=O)N4CCN(C(=O)CC5CCN(C(=N)N)CC5)CC4)CCC3)CC2)CC1', 'UniProt:P07477', 2.65),
  ('CC1(C)C2CC1[C@]1(C)OB([C@H](CCCN=C(N)N)NC(=O)c3ccc(-c4ccccc4)c(N)c3)O[C@@H]1C2 (some centres not stated)', 'UniProt:P07477', -2.33),
  ('C[S+]([O-])Cc1nc(Cc2ccccc2)n(CC(=O)N[C@@H](CCCCN)B2O[C@@H]3C[C@@H]4C[C@@H](C4(C)C)[C@]3(C)O2)n1 (some centres not stated)', 'UniProt:P07477', -2.32),
  ('Cc1nc(N)ccc1CNC(=O)Cn1c(C)c(Cl)nc(NCCc2ccccc2)c1=O', 'UniProt:P07477', 0.32),
  ('Cc1ccc(NS(=O)(=O)Cc2ccccc2)c(=O)n1CC(=O)NC[C@H]1CC[C@H](N)CC1', 'UniProt:P07477', 0.48),
  ('O=C1Cn2c(Cl)cnc(c2=O)N[C@@H](Cc2ccccc2)CNCCCCCOc2ccc(Cl)cc2CN1', 'UniProt:P07477', -1.10),
  ('CC1(C)CNc2c(cc(CCC(=O)N3CCN(CC(=O)N4CCOCC4)CC3)cc2S(=O)(=O)N[C@@H](Cc2nc3ccccc3s2)C(=O)N2CCC(CCF)CC2)C1', 'UniProt:P07477', 2.18);
